Test system: MES-SA
EXPERIMENT: relative viability vs DMSO control (72 h) (fraction); higher = more viable cells
STUDY CONDITIONS: 0.00051 µM
# relative viability listing for each entry below
ASSAY READOUT: relative viability

- MOL: "C=CC(=O)Nc1cc(Nc2nccc(-c3cn(C)c4ccccc34)n2)c(OC)cc1N(C)CCN(C)C"
  TEST TARGET: "MES-SA"
  NUMBER: 0.947
- MOL: "C=CC(=O)Nc1cccc(Nc2nc(Nc3ccc(N4CCN(C(C)=O)CC4)cc3OC)ncc2C(F)(F)F)c1"
  TEST TARGET: "MES-SA"
  NUMBER: 0.955
- MOL: "C[C@H]1Oc2cc(cnc2N)-c2c(nn(C)c2C#N)CN(C)C(=O)c2ccc(F)cc21"
  TEST TARGET: "MES-SA"
  NUMBER: 0.987
- MOL: "C[C@@H]1COC(Nc2ccc3ncnc(Nc4ccc(OCc5nccs5)c(Cl)c4)c3c2)=N1"
  TEST TARGET: "MES-SA"
  NUMBER: 0.965
- MOL: "Cc1c(F)cc(C(=O)NC2CC2)cc1-c1ccc(C(=O)NCC(C)(C)C)cn1"
  TEST TARGET: "MES-SA"
  NUMBER: 0.996
- MOL: "C1=N/C2=N/c3ccc(OCCN4CCCC4)c(c3)COC/C=C/COCc3cccc(c3)C(=C1)N2"
  TEST TARGET: "MES-SA"
  NUMBER: 0.966
- MOL: "NC(=O)c1cccc2cn(-c3ccc([C@@H]4CCCNC4)cc3)nc12"
  TEST TARGET: "MES-SA"
  NUMBER: 0.898
- MOL: "N#Cc1ccnc(N2C(=O)CC[C@H]2C(=O)N(c2cncc(F)c2)[C@H](C(=O)NC2CC(F)(F)C2)c2ccccc2Cl)c1"
  TEST TARGET: "MES-SA"
  NUMBER: 0.943
- MOL: "CCN(c1cc(-c2ccc(CN3CCOCC3)cc2)cc(C(=O)NCc2c(C)cc(C)[nH]c2=O)c1C)C1CCOCC1"
  TEST TARGET: "MES-SA"
  NUMBER: 0.988
